Tested on: giant foxtail (Setaria faberii)
Assay: Test A postemergence
Type: in vivo
Conditions: 500 g ai/ha, postemergence; visual injury, 0 to 100 scale (0 no effect, 100 complete control), approx. 10 d
Can you tell me Plant response rating, Foxtail, Giant for the items I'm about to list?

Find the recorded Plant response rating, Foxtail, Giant belonging to Cc1ccc(C2CN(C)C(=O)C2C(=O)Nc2ccccc2C(F)(F)F)cc1 (stereo not shown) [Compound 665] and report it.
90

Find the recorded Plant response rating, Foxtail, Giant belonging to Cc1cc(C2CNC(=O)C2C(=O)Nc2ccccc2F)cs1 (stereo not shown) [Compound 630] and report it.
30

Find the recorded Plant response rating, Foxtail, Giant belonging to O=C1NCC(c2cccc3ccccc23)C1C(=O)Nc1cccc(F)c1F (racemic) [Compound 711] and report it.
0

Find the recorded Plant response rating, Foxtail, Giant belonging to Cc1ccc(C2CN(C)C(=O)C2C(=O)Nc2ccccc2F)cc1 (stereo not shown) [Compound 661] and report it.
90

====

Test system: redroot pigweed (Amaranthus retroflexus)
Experiment: Test G Post-Emergence Protocol
Format: in vivo
Conditions: Amaranthus retroflexus, post-emergence, 312 h, 62.5 g ai/ha, evaluated after 13 days, 100=total damage to plant, 0=no damage to plant, read-out: Pigweed, Redroot damage rating
Use 10% as the dividing line for pest or weed control at 62.5 g/ha, with the line itself on the Satisfied side and lower values as Not satisfied.

Quick check: does CCOc1cc(C)cc(C2CN(C)C(=O)C2C(=O)Nc2cccc(F)c2F)c1 (stereo not shown) have pest or weed control at 62.5 g/ha greater than or equal to 10%?
Satisfied

Quick check: does CSc1ccncc1NC(=O)[C@H]1C(=O)N(C)C[C@@H]1c1ccc(C(F)(F)F)cc1 (racemic) have pest or weed control at 62.5 g/ha greater than or equal to 10%?
Not satisfied

Quick check: does CN1C[C@@H](c2ccc(C(F)(F)F)cc2)[C@H](C(=O)Nc2ccc(F)nc2F)C1=O (racemic) have pest or weed control at 62.5 g/ha greater than or equal to 10%?
Satisfied

Quick check: does CCCOc1cc(OC(F)(F)F)cc(C2CN(C)C(=O)C2C(=O)Nc2cccc(F)c2F)c1 (stereo not shown) have pest or weed control at 62.5 g/ha greater than or equal to 10%?
Satisfied

Quick check: does CN1C[C@H](c2cccc(C(F)(F)F)c2)[C@@H](C(=O)Nc2cccc(O)c2F)C1=O (racemic) have pest or weed control at 62.5 g/ha greater than or equal to 10%?
Not satisfied

====

Tested on: barnyardgrass (Echinochloa crus-galli)
Assay: Test A preemergence
Type: in vivo
Settings: Echinochloa crus-galli, pre-emergence, 240 h, 125 g ai/ha, preemergence; visual rating after approx. 10 d; 0 to 100 scale where 0 is no effect and 100 is complete control; read-out: Plant response rating, Barnyardgrass
readout.label: pest or weed control at 125 g/ha
Give me the value, and tack the unit on after it.

Find the recorded pest or weed control at 125 g/ha belonging to `O=C1NCC[C@H](c2ccc(Cl)cc2)[C@H]1C(=O)Nc1cccc(F)c1F` and report it.
80%

Find the recorded pest or weed control at 125 g/ha belonging to `CN1C[C@H](c2cc(F)c(F)c(F)c2)[C@@H](C(=O)Nc2ccc(F)c(F)c2F)C1=O` and report it.
90%

Find the recorded pest or weed control at 125 g/ha belonging to `CC(F)(F)c1cccc([C@H]2CNC(=O)[C@@H]2C(=O)Nc2ccccc2F)c1` and report it.
80%

Find the recorded pest or weed control at 125 g/ha belonging to `CC(F)(F)c1cccc([C@H]2CNC(=O)[C@@H]2C(=O)Nc2ccc(F)cc2F)c1` and report it.
80%

Find the recorded pest or weed control at 125 g/ha belonging to `O=C1NC[C@H](c2cccc3c2OC(F)(F)O3)[C@H]1C(=O)Nc1ccccc1F` and report it.
80%
